B1: library; a variant is named by its letters at N, in order (parent)
chain: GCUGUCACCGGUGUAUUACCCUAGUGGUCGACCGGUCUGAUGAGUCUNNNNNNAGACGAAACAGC

- Variants of: B1
- ASSAY NAME: normalized RNA/DNA level without ligand (relative to sTRSVctl = 100) (log10 (% of sTRSVctl)); ligand: hypoxanthine (xanthine aptamer); higher = less ribozyme self-cleavage, higher mRNA level
- PROTOCOL CONDITIONS: HEK293T, reporter: mCherry (pCS4076), ligand present: no
normalized RNA/DNA level without ligand (log10) overview
Answer with a bare number; do not write a unit.

Solved cases (8 shown):
1) CAGAGU
1.79
2) GGCGGU
1.95
3) GGAAGG
1.29
4) AAGCAG
1.19
5) AGACGU
1.59
6) CUAUGU
1.88
7) GAGGUC
1.84
8) UGGAAA
1.7

Memo: AGCAGA , reported normalized RNA/DNA level without ligand (log10): 1.41

Item: AUUUCG | normalized RNA/DNA level without ligand (log10): 1.57

Data point: UGAAUA ; normalized RNA/DNA level without ligand (log10) = 1.86
